meta.source: patent US20200048360A1

Each record here notes measured Relative IC50 (fold of chimeric anti-endoglin antibody).
- assayedSystem: T1, human CD105 (R&D Systems, Catalog No. 1097-EN) (human, UniProt P17813 26-586)
- T1 construct: Captured on the plate by mouse anti-human CD105 (Southern Biotechnologies 9811-01); also called endoglin
- T1 sequence (looked up): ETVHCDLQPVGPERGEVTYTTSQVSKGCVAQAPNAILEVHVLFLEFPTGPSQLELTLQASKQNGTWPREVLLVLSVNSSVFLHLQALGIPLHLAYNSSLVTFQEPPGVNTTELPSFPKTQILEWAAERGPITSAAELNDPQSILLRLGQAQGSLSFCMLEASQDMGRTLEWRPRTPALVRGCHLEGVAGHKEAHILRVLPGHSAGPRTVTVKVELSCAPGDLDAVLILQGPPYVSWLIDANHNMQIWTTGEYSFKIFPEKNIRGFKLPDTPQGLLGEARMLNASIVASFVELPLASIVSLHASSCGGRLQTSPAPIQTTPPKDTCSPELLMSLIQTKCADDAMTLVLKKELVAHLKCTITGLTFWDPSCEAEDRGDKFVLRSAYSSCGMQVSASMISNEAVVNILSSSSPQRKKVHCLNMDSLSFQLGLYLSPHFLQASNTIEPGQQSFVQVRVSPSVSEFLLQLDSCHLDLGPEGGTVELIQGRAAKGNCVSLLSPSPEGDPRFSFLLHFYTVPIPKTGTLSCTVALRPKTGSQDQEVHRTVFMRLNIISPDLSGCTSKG
- runDescription: competition ELISA on captured human CD105; competitor biotinylated chimeric anti-CD105

Note Relative IC50 (fold of chimeric anti-endoglin antibody) for the binder shown: VK2SAVH1A (antibody, V domains shown, IgG1 heavy chain, kappa light chain) VH: EVQLVESGGGLVKPGGSLRLSCAASGFTFSDAWMDWVRQAPGKGLEWVAEIRSKASNHATYYAESVKGRFTISRDDSKNTLYLQMNSLKTEDTAVYYCTRWRRFFDSWGQGTLVTVSS VL: DIQLTQSPSSLSASVGDRVTISCRASSSVSYMHWYQQKPGKAPKPWAYATSNLASGVPSRFSGSGSGTDYTLTISSLQPEDFATYYCQQWSSNPLTFGGGTKVEIK
0.49 fold relative to chimeric

Note Relative IC50 (fold of chimeric anti-endoglin antibody) for the binder shown: VK2AAVH1A2 (antibody, V domains shown, IgG1 heavy chain, kappa light chain) VH: EVQLVESGGGLVKPGGSLRLSCAASGFTFSDAWMDWVRQAPGKGLEWVGEARSKASNHATYYAESVKGRFTISRDDSKNTLYLQMNSLKTEDTAVYYCTRWRRFFDSWGQGTLVTVSS VL: DIQLTQSPSSLSASVGDRATITCRASSSVSYMHWYQQKPGKAPKPWAYATSNLASGVPSRFSGSGSGTDYTLTISSLQPEDFATYYCQQWSSNPLTFGGGTKVEIK
0.99 fold relative to chimeric

Note Relative IC50 (fold of chimeric anti-endoglin antibody) for the binder shown: VK2ASVH1R (antibody, V domains shown, IgG1 heavy chain, kappa light chain) VH: EVQLVESGGGLVKPGGSLRLSCAASGFTFSDAWMDWVRQAPGKGLEWVGEIRSRASNHATYYAESVKGRFTISRDDSKNTLYLQMNSLKTEDTAVYYCTRWRRFFDSWGQGTLVTVSS VL: DIQLTQSPSSLSASVGDRATITCRASSSVSYMHWYQQKPGKAPKPWIYASSNLASGVPSRFSGSGSGTDYTLTISSLQPEDFATYYCQQWSSNPLTFGGGTKVEIK
1.02 fold relative to chimeric

***
Note Relative IC50 (fold of chimeric anti-endoglin antibody) for the binder shown: VK2SAVH1R (antibody, V domains shown, IgG1 heavy chain, kappa light chain) VH: EVQLVESGGGLVKPGGSLRLSCAASGFTFSDAWMDWVRQAPGKGLEWVGEIRSRASNHATYYAESVKGRFTISRDDSKNTLYLQMNSLKTEDTAVYYCTRWRRFFDSWGQGTLVTVSS VL: DIQLTQSPSSLSASVGDRVTISCRASSSVSYMHWYQQKPGKAPKPWAYATSNLASGVPSRFSGSGSGTDYTLTISSLQPEDFATYYCQQWSSNPLTFGGGTKVEIK
0.77 fold relative to chimeric

Note Relative IC50 (fold of chimeric anti-endoglin antibody) for the binder shown: VK2ASVH1Q (antibody, V domains shown, IgG1 heavy chain, kappa light chain) VH: EVQLVESGGGLVKPGGSLRLSCAASGFTFSDAWMDWVRQAPGKGLEWVGEIRSQASNHATYYAESVKGRFTISRDDSKNTLYLQMNSLKTEDTAVYYCTRWRRFFDSWGQGTLVTVSS VL: DIQLTQSPSSLSASVGDRATITCRASSSVSYMHWYQQKPGKAPKPWIYASSNLASGVPSRFSGSGSGTDYTLTISSLQPEDFATYYCQQWSSNPLTFGGGTKVEIK
1.04 fold relative to chimeric

Note Relative IC50 (fold of chimeric anti-endoglin antibody) for the binder shown: VK2ASVH1S (antibody, V domains shown, IgG1 heavy chain, kappa light chain) VH: EVQLVESGGGLVKPGGSLRLSCAASGFTFSDAWMDWVRQAPGKGLEWVSEIRSKASNHATYYAESVKGRFTISRDDSKNTLYLQMNSLKTEDTAVYYCTRWRRFFDSWGQGTLVTVSS VL: DIQLTQSPSSLSASVGDRATITCRASSSVSYMHWYQQKPGKAPKPWIYASSNLASGVPSRFSGSGSGTDYTLTISSLQPEDFATYYCQQWSSNPLTFGGGTKVEIK
1.31 fold relative to chimeric

Note Relative IC50 (fold of chimeric anti-endoglin antibody) for the binder shown: VK2SSVH1R (antibody, V domains shown, IgG1 heavy chain, kappa light chain) VH: EVQLVESGGGLVKPGGSLRLSCAASGFTFSDAWMDWVRQAPGKGLEWVGEIRSRASNHATYYAESVKGRFTISRDDSKNTLYLQMNSLKTEDTAVYYCTRWRRFFDSWGQGTLVTVSS VL: DIQLTQSPSSLSASVGDRVTISCRASSSVSYMHWYQQKPGKAPKPWIYASSNLASGVPSRFSGSGSGTDYTLTISSLQPEDFATYYCQQWSSNPLTFGGGTKVEIK
0.62 fold relative to chimeric

Note Relative IC50 (fold of chimeric anti-endoglin antibody) for the binder shown: VK2AAVH1Q (antibody, V domains shown, IgG1 heavy chain, kappa light chain) VH: EVQLVESGGGLVKPGGSLRLSCAASGFTFSDAWMDWVRQAPGKGLEWVGEIRSQASNHATYYAESVKGRFTISRDDSKNTLYLQMNSLKTEDTAVYYCTRWRRFFDSWGQGTLVTVSS VL: DIQLTQSPSSLSASVGDRATITCRASSSVSYMHWYQQKPGKAPKPWAYATSNLASGVPSRFSGSGSGTDYTLTISSLQPEDFATYYCQQWSSNPLTFGGGTKVEIK
0.76 fold relative to chimeric

Note Relative IC50 (fold of chimeric anti-endoglin antibody) for the binder shown: VK2AAVH1R (antibody, V domains shown, IgG1 heavy chain, kappa light chain) VH: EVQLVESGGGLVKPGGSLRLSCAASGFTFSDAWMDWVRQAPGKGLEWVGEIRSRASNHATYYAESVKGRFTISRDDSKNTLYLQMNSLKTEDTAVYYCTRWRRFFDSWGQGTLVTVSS VL: DIQLTQSPSSLSASVGDRATITCRASSSVSYMHWYQQKPGKAPKPWAYATSNLASGVPSRFSGSGSGTDYTLTISSLQPEDFATYYCQQWSSNPLTFGGGTKVEIK
0.61 fold relative to chimeric

Note Relative IC50 (fold of chimeric anti-endoglin antibody) for the binder shown: VK2SSVH1A2 (antibody, V domains shown, IgG1 heavy chain, kappa light chain) VH: EVQLVESGGGLVKPGGSLRLSCAASGFTFSDAWMDWVRQAPGKGLEWVGEARSKASNHATYYAESVKGRFTISRDDSKNTLYLQMNSLKTEDTAVYYCTRWRRFFDSWGQGTLVTVSS VL: DIQLTQSPSSLSASVGDRVTISCRASSSVSYMHWYQQKPGKAPKPWIYASSNLASGVPSRFSGSGSGTDYTLTISSLQPEDFATYYCQQWSSNPLTFGGGTKVEIK
1.03 fold relative to chimeric
